What IC50 was measured for each of the following?
Please respond with the number in µM and leave the unit unwritten.

Request - read-out IC50 | tested on mTOR (Homo sapiens, UniProt P42345) | compound "Nc1nc(N)c(N=O)c(OCc2ccc(Cl)cc2)n1" 4.9

Request - read-out IC50 | tested on mTOR (Homo sapiens, UniProt P42345) | compound "Nc1nc(N)c(N=O)c(OCC2CCCCC2)n1" 19
